# System: Micrococcus luteus
# Test protocol: Antibacterial activity against Micrococcus luteus ATCC 9341 after 24 hrs by broth microdilution method
# Assay type: functional
# Conditions used: ATCC 9341, 24 h
Measured attribute: MIC

Asked: Please report MIC for the following compound: CO[C@H]1/C=C/O[C@@]2(C)Oc3c(C)c(O)c4c(O)c(c(/C=N/N5CCN(C)CC5)c(O)c4c3C2=O)NC(=O)/C(C)=C\C=C\[C@H](C)[C@H](O)[C@@H](C)[C@@H](O)[C@@H](C)[C@H](OC(C)=O)[C@@H]1C
Given back: ≤ 0.125 µg/mL

Asked: Fill in reported MIC for this entry: Cc1cc(O)c(C(=O)CCCCC(=O)Nc2c3sscc-3[nH]c2=O)c(=O)o1
Given back: 8 µg/mL

Asked: Supply reported MIC belonging to this compound: Cc1cc(O)c(C(=O)CCCCCCCC(=O)Nc2c3sscc-3[nH]c2=O)c(=O)o1
Given back: 1 µg/mL

Asked: Return MIC (reported value) for this compound: CCCCCCCCC(=O)c1c(O)cc(C)oc1=O
Given back: 2 µg/mL

* * *

# System: Bacillus spizizenii
# Test protocol: Antibacterial activity against Bacillus subtilis ATCC 6633 at 30 ug/disk after 12 hrs by paper disk diffusion assay
# Assay type: functional
The source made the active and inactive calls. The rule behind the calls is not given here.
Measured attribute: diameter of the inhibition zone (DIZ)

The following compounds have reported results that may help.
CCC(=O)c1c(O)cc(CCCC(=O)Nc2c3sscc-3[nH]c2=O)oc1=O :: inactive
CCCCCCCCC(=O)c1c(O)cc(CCCCCC(=O)O)oc1=O :: Active
Cc1cc(O)c(C(=O)NCCCCCCC(=O)O)c(=O)o1 :: inactive
Cc1cc(O)c(C(=O)NCCCCCCC(=O)Nc2c3sscc-3[nH]c2=O)c(=O)o1 :: Active
Cc1cc(O)c(C(=O)CCCCCCCC(=O)N2CCCCC2)c(=O)o1 :: inactive

Asked: Complete the entry with diameter of the inhibition zone (DIZ) for Cc1cc(O)c(C(=O)CCCCCCC(=O)NC2=C3SS(=O)(=O)C=C3NC2=O)c(=O)o1
Given back: inactive

Asked: Identify diameter of the inhibition zone (DIZ) associated with the compound CCC(=O)c1c(O)cc(C)oc1=O
Given back: inactive

Asked: Let me know recorded diameter of the inhibition zone (DIZ) for Cc1cc(O)c(C(=O)CCCCCCC(=O)O)c(=O)o1 , thanks.
Given back: inactive

Asked: Supply diameter of the inhibition zone (DIZ) value. Item: C=CCCCc1cc(O)c(C(=O)CCCCCCC(=O)O)c(=O)o1
Given back: inactive

Asked: Output measured diameter of the inhibition zone (DIZ) for this item: CCCC/C(C)=C/C=C(\C)C(=O)c1c(O)cc(C(C)CC/C=C/NC(=O)OC)oc1=O (racemic)
Given back: Active

* * *

# Tested on: Staphylococcus aureus
# Test protocol: Antibacterial activity against Staphylococcus aureus ATCC 29213 after 24 hrs by broth microdilution method
# Format: functional
# Conditions used: ATCC 29213, 24 h
Measured attribute: MIC (µg/mL)
Only the number, expressed in µg/mL, is required.

Asked: Return MIC (reported value) for this compound: CO[C@H]1/C=C/O[C@@]2(C)Oc3c(C)c(O)c4c(O)c(c(/C=N/N5CCN(C)CC5)c(O)c4c3C2=O)NC(=O)/C(C)=C\C=C\[C@H](C)[C@H](O)[C@@H](C)[C@@H](O)[C@@H](C)[C@H](OC(C)=O)[C@@H]1C
Given back: 0.5

Asked: Kindly indicate its recorded MIC. Item: Cc1cc(O)c(C(=O)CCCCCCCC(=O)Nc2c3sscc-3[nH]c2=O)c(=O)o1
Given back: 4

Asked: For CCCCCCCCC(=O)c1c(O)cc(C)oc1=O , write its MIC.
Given back: 8

Asked: In one line, give reported MIC of the entry Cc1cc(O)c(C(=O)CCCCC(=O)Nc2c3sscc-3[nH]c2=O)c(=O)o1 .
Given back: 64
